B1: RTP4 (parent)
chain: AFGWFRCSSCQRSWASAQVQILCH

Variants of: B1
assayText: protein stability index of a GFP-peptide fusion (GPS, HEK-293T) (PSI 1-6); higher = more stable;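 note: lentivirally expressed fusions sorted by FACS into six bins by GFP to DsRed ratio, PSI derived from sequencing read proportions per bin multiplied by bin number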
conditionSummary: c terminus: a fixed tail appended
measuredProperty: protein stability index

The following variants have reported results that may help.
>>> observedmeasurement("A17C")
2.38
>>> observedmeasurement("W14F")
3.1
>>> observedmeasurement("C7V")
3.3

(Q) For the variant shown here, `Q18T` , give the reported protein stability index.
(A) 1.57

(Q) Entry `Q20K` please
(A) 2.83

(Q) Entry `Q20I` please
(A) 2.42

(Q) Entry `Q11Y` please
(A) 4.15

(Q) Entry `F2D` please
(A) 2.56

(Q) Entry `Q20N` please
(A) 2.4

(Q) Entry `S13D` please
(A) 2.27

(Q) Entry `I21K` please
(A) 1.03

(Q) Entry `H24W` please
(A) 1.61

(Q) Entry `L22D` please
(A) 1.79
